Where do these numbers come from? They come from ChEMBL document CHEMBL1641539.

compounds and their reported inhibition
# Tested on: RAF proto-oncogene serine/threonine-protein kinase (Homo sapiens), P04049 [Y340D,Y341D]
# Sequence (P04049 whole entry Y340D/Y341D): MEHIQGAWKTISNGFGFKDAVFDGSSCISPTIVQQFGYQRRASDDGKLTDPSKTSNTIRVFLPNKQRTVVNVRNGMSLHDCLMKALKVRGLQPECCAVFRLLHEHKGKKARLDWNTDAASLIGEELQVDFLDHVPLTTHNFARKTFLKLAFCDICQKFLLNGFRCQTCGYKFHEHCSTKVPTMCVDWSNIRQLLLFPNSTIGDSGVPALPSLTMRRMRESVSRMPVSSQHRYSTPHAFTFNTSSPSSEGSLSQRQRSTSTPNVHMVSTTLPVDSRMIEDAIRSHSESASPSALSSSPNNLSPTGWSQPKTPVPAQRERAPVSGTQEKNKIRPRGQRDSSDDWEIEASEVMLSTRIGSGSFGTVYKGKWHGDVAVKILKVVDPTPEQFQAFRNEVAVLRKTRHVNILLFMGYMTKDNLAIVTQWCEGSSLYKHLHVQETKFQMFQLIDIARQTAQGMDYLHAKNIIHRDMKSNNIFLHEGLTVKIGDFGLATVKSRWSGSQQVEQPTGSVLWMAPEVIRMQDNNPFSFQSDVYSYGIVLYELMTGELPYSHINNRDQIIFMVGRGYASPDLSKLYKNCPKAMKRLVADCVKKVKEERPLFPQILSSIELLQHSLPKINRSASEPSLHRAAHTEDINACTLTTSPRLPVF
# assay-summary: Inhibition of RAF1 Y340D, Y341D mutant at 10 uM after 60 mins by TR-FRET assay
Number in %, nothing else.

Answered cases to consult:
O=c1[nH]nc(-c2ccnc(NC3CCCCC3)c2)n1-c1ccc2ccccc2c1 : 13
O=c1[nH]nc(-c2ccnc(NC3CCOCC3)c2)n1-c1ccc2ccccc2c1 : 16
O=c1n(Cc2ccccn2)nc(-c2ccnc(NC3CCOCC3)c2)n1-c1ccc2ccccc2c1 : 0
O=c1n(C2CCOCC2)nc(-c2ccnc(NC3CCCCC3)c2)n1-c1ccc2ccccc2c1 : -3
O=c1[nH]nc(-c2ccnc(NC3CCCOC3)c2)n1-c1ccc2ccccc2c1 (stereo unspecified) : 0

Let us examine a further case.
State the recorded inhibition for this entry: O=c1n(Cc2ccncc2)nc(-c2ccnc(NC3CCCCC3)c2)n1-c1ccc2ccccc2c1
-2

---

# experimental-target: Serine/threonine-protein kinase MARK2 (Homo sapiens)
# assay-summary: Inhibition of MARK2 at 10 uM after 60 mins by TR-FRET assay
readout-kind: inhibition (%)
# value in %; strip the unit string

Some solved cases for reference:
O=c1[nH]nc(-c2ccnc(NC3CCOCC3)c2)n1-c1ccc2ccccc2c1 : 4
O=c1[nH]nc(-c2ccnc(NC3CCCOC3)c2)n1-c1ccc2ccccc2c1 (stereo unspecified) : 1
O=c1n(Cc2ccccn2)nc(-c2ccnc(NC3CCOCC3)c2)n1-c1ccc2ccccc2c1 : -2
O=c1n(C2CCOCC2)nc(-c2ccnc(NC3CCCCC3)c2)n1-c1ccc2ccccc2c1 : 0
O=c1n(Cc2ccncc2)nc(-c2ccnc(NC3CCCCC3)c2)n1-c1ccc2ccccc2c1 : 0

Below: the item to evaluate.
Kindly state the measured inhibition obtained for O=c1[nH]nc(-c2ccnc(NC3CCCCC3)c2)n1-c1ccc2ccccc2c1 with Serine/threonine-protein kinase MARK2 (Homo sapiens).
1

---

# experimental-target: Receptor tyrosine-protein kinase erbB-4 (Homo sapiens)
# assay-summary: Inhibition of ERBB4 at 10 uM after 60 mins by TR-FRET assay
inhibition by entry:
Respond numerically; units are % and should not be typed.

These solved cases illustrate the format of a correct answer.
O=c1n(C2CCOCC2)nc(-c2ccnc(NC3CCCCC3)c2)n1-c1ccc2ccccc2c1 : 3
O=c1n(Cc2ccccn2)nc(-c2ccnc(NC3CCOCC3)c2)n1-c1ccc2ccccc2c1 : -3
O=c1[nH]nc(-c2ccnc(NC3CCCOC3)c2)n1-c1ccc2ccccc2c1 (stereo unspecified) : 16
O=c1[nH]nc(-c2ccnc(NC3CCOCC3)c2)n1-c1ccc2ccccc2c1 : 3
O=c1[nH]nc(-c2ccnc(NC3CCCCC3)c2)n1-c1ccc2ccccc2c1 : 2

Here is another compound to look at.
Give its inhibition value. Item: O=c1n(Cc2ccncc2)nc(-c2ccnc(NC3CCCCC3)c2)n1-c1ccc2ccccc2c1
-3

---

# experimental-target: Glycogen synthase kinase-3 beta (Homo sapiens) (UniProt P49841)
# Sequence (P49841 whole entry, looked up): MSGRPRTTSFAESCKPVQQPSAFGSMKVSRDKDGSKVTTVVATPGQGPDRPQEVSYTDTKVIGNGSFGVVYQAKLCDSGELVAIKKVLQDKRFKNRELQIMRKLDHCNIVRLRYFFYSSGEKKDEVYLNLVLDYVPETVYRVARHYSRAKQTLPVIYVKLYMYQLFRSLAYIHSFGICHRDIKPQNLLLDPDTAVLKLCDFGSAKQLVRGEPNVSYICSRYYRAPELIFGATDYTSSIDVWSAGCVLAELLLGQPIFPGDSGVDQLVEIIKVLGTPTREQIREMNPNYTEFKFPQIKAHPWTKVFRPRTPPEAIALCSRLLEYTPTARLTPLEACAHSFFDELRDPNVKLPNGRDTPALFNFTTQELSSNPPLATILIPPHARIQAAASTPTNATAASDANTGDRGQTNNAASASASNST
# assay-summary: Inhibition of GSK3B at 10 uM after 60 mins by TR-FRET assay
readout-kind: inhibition (%)
Field: numeric (%). Do not append units.

// known answers, use as guide
O=c1n(Cc2ccncc2)nc(-c2ccnc(NC3CCCCC3)c2)n1-c1ccc2ccccc2c1 : 13
O=c1n(Cc2ccccn2)nc(-c2ccnc(NC3CCOCC3)c2)n1-c1ccc2ccccc2c1 : 7
O=c1[nH]nc(-c2ccnc(NC3CCCOC3)c2)n1-c1ccc2ccccc2c1 (stereo unspecified) : 81
O=c1[nH]nc(-c2ccnc(NC3CCCCC3)c2)n1-c1ccc2ccccc2c1 : 38
O=c1[nH]nc(-c2ccnc(NC3CCOCC3)c2)n1-c1ccc2ccccc2c1 : 73

Consider the additional compound presented here.
Could you tell me which inhibition is on file for O=c1n(C2CCOCC2)nc(-c2ccnc(NC3CCCCC3)c2)n1-c1ccc2ccccc2c1 ?
15
